tested on: NCI-H23 lung; experiment: NCI-60 one-dose screen, 48 h (100 = growth as untreated, 0 = no growth, -100 = all killed); conditions: 10 µM unless noted
About 83,000 compounds went through this panel and 20% of them were active in at least one assay; those are over-represented in the sample as a whole.
Reported metric: growth (%)
Report only the number, with the unit % understood.

A selection of reference data follows.
[[record]]
compound = "CC(=O)c1c(OCC#N)ccc2c(C)cc(=O)oc12"
study_target = "NCI-H23 lung"
quantitative_result = 109

[[record]]
compound = "c1ccc(Sc2ncccn2)nc1"
study_target = "NCI-H23 lung"
quantitative_result = 93

[[record]]
compound = "NC(=O)c1ccc(C2C3=C(CCCC3=O)OC3=C2C(=O)c2ccccc2C3=O)cc1 (centres undefined)"
study_target = "NCI-H23 lung"
quantitative_result = -34.7

[[record]]
compound = "COc1ccc(/C=C/C(=O)/C=C(/C=C/c2ccc(OC)c(OC)c2)OB(F)F)cc1OC"
study_target = "NCI-H23 lung"
quantitative_result = 52.3

[[record]]
compound = "N#C/C(=C/c1ccc(O)c([N+](=O)[O-])c1)c1nc(-c2ccc([N+](=O)[O-])cc2)cs1"
study_target = "NCI-H23 lung"
quantitative_result = 13.6

[[record]]
compound = "Cc1cc(C)nc(NS(=O)(=O)c2ccc(Nc3ccc4c5c(n(CCCN(C)C)c(=O)c4c3)-c3ccccc3C5=O)cc2)n1"
study_target = "NCI-H23 lung"
quantitative_result = 83.9

[[record]]
compound = "Nc1ccccc1NC(=O)c1ccc(CSc2nc(N3CCOCC3)c3cccn3n2)cc1"
study_target = "NCI-H23 lung"
quantitative_result = 22.5

[[record]]
compound = "O=C(CCCCCCCCC(=O)Nc1cccc(C2=NCCN2)c1)Nc1cccc(C2=NCCN2)c1"
study_target = "NCI-H23 lung"
quantitative_result = 75.8


Please find the next compound below.
Data point: CC(=O)OCC1OC(OC2C(COC(C)=O)OC(OCCC[S-])C(OC(C)=O)C2OC(C)=O)C(OC(C)=O)C(OC(C)=O)C1OC(C)=O.[Au+].c1ccc(CN2[CH-]N(Cc3ccccc3)C(c3ccccc3)=C2c2ccccc2)cc1 (centres undefined) ; growth = 12.1

###

Catalogue of growth values
system: MDA-MB-231 breast; assay: NCI-60 one-dose screen, 48 h (100 = growth as untreated, 0 = no growth, -100 = all killed); conditions: 10 µM unless noted
This is part of a sample that, as a whole, favours compounds with a hit. Of some 83,000 tested, about 20% had one in any assay.
Report only the number, with the unit % understood.

A selection of reference data follows.
[[record]]
compound = "CC(=O)Nc1ccc2c(c1)Cc1cc(F)ccc1-2"
study_target = "MDA-MB-231 breast"
reported_metric = "growth"
quantitative_result = 101

[[record]]
compound = "CCOC(=O)c1c(C)nc2c(c1N)/C(=C/c1ccccn1)C(=O)N2Cc1ccccc1"
study_target = "MDA-MB-231 breast"
reported_metric = "growth"
quantitative_result = 14.1

[[record]]
compound = "O=c1cc(/C=N\\Nc2nc(-c3ccc(Cl)cc3Cl)cs2)c2cc(Cl)ccc2o1"
study_target = "MDA-MB-231 breast"
reported_metric = "growth"
quantitative_result = 82.8


Data point: N#Cc1ccc(N2Cc3cc(Cl)ccc3OC3=C2C(=O)N(Cc2ccc(F)cc2)C3=O)cc1 ; growth = -0.424

Data point: CCCn1cc(/C=N\N=C2\C(=O)Nc3ccc(C)cc32)c2ccccc21 ; growth = 34.4

Data point: COc1ccc(-c2nc(C#N)c(NCC(c3ccc(Cl)cc3)N3CCCCC3)o2)cc1 (configuration not stated) ; growth = 102

###

Catalogue of growth values
tested on: SNB-75 CNS; assay: NCI-60 one-dose screen, 48 h (100 = growth as untreated, 0 = no growth, -100 = all killed); conditions: 10 µM unless noted
This is part of a sample that, as a whole, favours compounds with a hit. Of some 83,000 tested, about 20% had one in any assay.
Report only the number, with the unit % understood.

[[record]]
compound = "C=C1C(=O)O[C@H]2[C@H]1CC/C(C=Nc1c(N)cc(F)cc1Br)=C\\CC[C@@]1(C)O[C@@H]21"
study_target = "SNB-75 CNS"
unit_abbreviation = "%"
quantitative_result = 91.2

[[record]]
compound = "N#Cc1ccc(Oc2ccc3ccc(=O)oc3c2)cc1"
study_target = "SNB-75 CNS"
unit_abbreviation = "%"
quantitative_result = 97.2

[[record]]
compound = "COC(=O)CCc1cc(O)c2c(c1)[C@@H](C(=O)OC)[C@H](c1ccc(O)c(O)c1)O2"
study_target = "SNB-75 CNS"
unit_abbreviation = "%"
quantitative_result = 71.2

[[record]]
compound = "O=C1NN(c2ccccc2)C(c2ccc3c(c2)OCO3)N2CCC[C@@H]12 (stereo not given in full)"
study_target = "SNB-75 CNS"
unit_abbreviation = "%"
quantitative_result = 93.6

[[record]]
compound = "O=C(/C(=C\\c1c(-c2ccccc2)[nH]c2ccccc12)S(=O)(=O)c1ccccc1)c1ccccc1"
study_target = "SNB-75 CNS"
unit_abbreviation = "%"
quantitative_result = 45.4


Data point: CCOC(=O)c1c(C)nc2c(c1N)CC(=O)N2CCc1ccccc1 ; growth = 80.1

Data point: CN(C)C(CNc1oc(-c2cccc3ccccc23)nc1C#N)c1ccco1 (stereo not given) ; growth = 71.5

Data point: OCCNc1nc(NCCO)nc(Nc2ccc(C3=NN(c4cc(Cl)cc(Cl)c4)C(c4ccccc4)C3)cc2)n1 (stereo not given) ; growth = 52.5

Data point: Nc1cc(N)nc(SCC(=O)O)n1 ; growth = 100

Data point: CC(C)(C#N)c1cc(F)cc(C(=O)Nc2cc(Nc3ncccc3-c3ncnc4nc[nH]c34)ccc2F)c1 ; growth = 78.7

###

tested on: SNB-75 CNS; assay: NCI-60 one-dose screen, 48 h (100 = growth as untreated, 0 = no growth, -100 = all killed); settings: 10 µM unless noted
Compounds without any hit were thinned out: in the full panel of roughly 83,000, 20% have a hit.
Reported metric: growth (%)
Report only the number, with the unit % understood.

A selection of reference data follows.
[[record]]
compound = "O=C1C(Cl)=C(Nc2ccc3c(c2NC2=C(Cl)C(=O)c4ccccc4C2=O)C(=O)c2ccccc2C3=O)C(=O)c2ccccc21"
quantitative_result = -15.1

[[record]]
compound = "COc1ccc(Cc2nc(C#N)c(N3CCN(c4ccc(F)cc4)CC3)o2)cc1"
quantitative_result = 65.2

[[record]]
compound = "COc1ccc(/C=C/C(=O)Nc2ncnc3nc[nH]c23)cc1"
quantitative_result = 82


Data point: COc1ccc(C(=S)c2cc(OC)c(OC)c(OC)c2)cc1OC(=O)CCl ; growth = 53.8

Data point: N#CC1(C#N)C2=C(CCCC2)NC(c2c(F)cccc2Cl)C1(C#N)C#N (stereo not given) ; growth = 51.1

###

test system: K-562 leukemia; test: NCI-60 one-dose screen, 48 h (100 = growth as untreated, 0 = no growth, -100 = all killed); details: 10 µM unless noted
About 83,000 compounds went through this panel and 20% of them were active in at least one assay; those are over-represented in the sample as a whole.
# note: boundary value 20% maps to rule not met; growth below it maps to rule met

Just wondering, is growth of CC[C@]12C=CCN3CC[C@@]4(c5ccc(OC)cc5N(C)[C@H]4[C@@](O)(C(=O)OC)[C@@H]1OC(=O)CCC(=O)O[C@H]1CC[C@H]4[C@@H]5CC[C@H]6CC(=O)CC[C@]6(C)[C@H]5CC[C@]14C)[C@@H]32 below 20%?
rule met

Just wondering, is growth of CC(C)C[C@H](C(=O)O)N(C)C(=O)[C@@H]1CCCN1C(=O)[C@H](C)OC(=O)[C@H](CCC(N)=O)NC(=O)[C@@H]1CCC(=O)N1 below 20%?
rule not met

Just wondering, is growth of O=[N+]([O-])c1ccc(N=Nc2c(O)c(N=Nc3cc([N+](=O)[O-])cc([N+](=O)[O-])c3O)cc(N=Nc3cc(S(=O)(=O)O)cc4cc(S(=O)(=O)O)cc(O)c34)c2O)cc1 below 20%?
rule not met

Just wondering, is growth of CCOC(=O)c1c(C(F)(F)F)n([O-])c2ccc(Cl)cc2[n+]1=O below 20%?
rule met

Just wondering, is growth of O=CN1N=C(c2ccc(Cl)cc2)CC1c1cccc(Nc2ccnc3cc(C(F)(F)F)ccc23)c1 (stereo unspecified) below 20%?
rule not met

Just wondering, is growth of CCOC(=O)NCCc1nc2c([nH]1)c(=O)n(C)c(=O)n2C below 20%?
rule not met

###

System: MOLT-4 leukemia
Experiment: NCI-60 one-dose screen, 48 h (100 = growth as untreated, 0 = no growth, -100 = all killed)
Conditions: 10 µM unless noted
Method: Growth inhibition of the MOLT-4 human tumor cell line is measured as a screen for anti-cancer activity. Cells are grown in 96 well plates and exposed to the test compound for 48 hours. Compounds are tested at a single concentration, which is 10^-5 M for most compounds. The reported endpoint is percent growth (GI% or GIPRCNT), where numbers from 0 - 100% represent growth inhibition, and numbers from -100% - 0 represent cell death. For example, a value of 40 represents 60% growth inhibition. […]
This is part of a sample that, as a whole, favours compounds with a hit. Of some 83,000 tested, about 20% had one in any assay.
# note: boundary value 50% maps to no (0); growth below it maps to yes (1)

[[record]]
smiles_text = "O=C1C(Cl)=C(Nc2ccc3c(c2NC2=C(Cl)C(=O)c4ccccc4C2=O)C(=O)c2ccccc2C3=O)C(=O)c2ccccc21"
study_target = "MOLT-4 leukemia"
assigned_class = "yes (1)"

[[record]]
smiles_text = "Cc1ccc2nc3nc4ccc[nH]c4cc3c2c1"
study_target = "MOLT-4 leukemia"
assigned_class = "no (0)"

[[record]]
smiles_text = "CC(=O)Oc1ccc(O)cc1"
study_target = "MOLT-4 leukemia"
assigned_class = "yes (1)"


Just wondering, is growth of COc1ccc2[nH]c3nc4cnccc4cc3c2c1 below 50%?
no (0)

Just wondering, is growth of CC(C)(C)CC(C)(C)Cc1ccc(OCCOCC[N+](C)(C)Cc2ccccc2)cc1 below 50%?
yes (1)

Just wondering, is growth of Oc1c(CCl)cc(Cl)cc1Cc1cc(Cl)cc(Cc2cc(Cl)cc(CCl)c2O)c1O below 50%?
yes (1)

Just wondering, is growth of C#CC[C@@H]1C[C@]2(C)[C@H]3CC[C@@H]4[C@H]5[C@H](C(=C)C)CC[C@]5(C(=O)O)CC[C@@]4(C)[C@]3(C)CC[C@H]2C(C)(C)[C@H]1O below 50%?
yes (1)

Just wondering, is growth of CC(=O)c1ccc(NC(=O)CSc2nnc(-c3cc(-c4ccc(Cl)cc4)nc4ccccc34)o2)cc1 below 50%?
no (0)
